As shown below, each of these compounds has a reported log10 of IC50 value.
- STUDY SYSTEM: smooth muscle angiotensin II receptor
- MEASUREMENT NOTES: Assay A: Angiotensin II Binding Activity (125I-AII displacement, rat uterine membrane preparation)
- TEST SETTINGS: 50% displacement of specifically bound 125I-AII, rat uterine membranes, 25° C., 60 min
READOUT TYPE: log10 of IC50 (log10 of the value in nM)

INSERT INTO measurements (smiles_representation, observed_value) VALUES
  ('CCCCc1cn(-c2c(C)cc(C)cc2C)c(=O)n1Cc1ccc(-c2ccccc2-c2nnn[nH]2)cc1', 1.48),
  ('CCCCc1cn(-c2c(CC)cccc2CC)c(=O)n1Cc1ccc(-c2ccccc2-c2nnn[nH]2)cc1', 1.52),
  ('CCCCc1cn(-c2c(C(C)C)cccc2C(C)C)c(=O)n1Cc1ccc(-c2ccccc2-c2nnn[nH]2)cc1', 2.28),
  ('CCCCc1cn(-c2c(OC)cccc2OC)c(=O)n1Cc1ccc(-c2ccccc2-c2nnn[nH]2)cc1', 0.99),
  ('CCCCc1cn(-c2c(C)cc(C(C)(C)C)cc2C)c(=O)n1Cc1ccc(-c2ccccc2-c2nnn[nH]2)cc1', 2.43),
  ('CCCCc1cn(-c2c(C)cccc2C)c(=O)n1Cc1ccc(-c2ccccc2-c2nnn[nH]2)cc1', 0.80),
  ('CCCCc1cn(-c2c(C)cccc2Cl)c(=O)n1Cc1ccc(-c2ccccc2-c2nnn[nH]2)cc1', 1.11),
  ('CCCCc1cn(-c2ccccc2CC)c(=O)n1Cc1ccc(-c2ccccc2-c2nnn[nH]2)cc1', 1.15),
  ('CCCCc1cn(-c2ccccc2C(C)C)c(=O)n1Cc1ccc(-c2ccccc2-c2nnn[nH]2)cc1', 1.99);
